Assignment: determine reported viability for the given molecules.
Test: growth suppression of PTEN-deleted HCT116, pilot screen, cell-based, HCT116 clonal line, CellTiter-Glo (AID 824);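 also: 0% = 20 µM Hyamine control and 100% = vehicle cell control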
Conditions: 60 h, at 10 µM, active compounds read low
Records with an inconclusive call do not appear.
State the answer as a number, implicitly in %.

Data request: For the molecule shown here, Cc1ccc2oc(=O)c3cnn(CC(=O)NC4CCC(C)CC4)c3c2c1 (stereo unspecified) , give the reported viability.
Data returned: 86

Data request: Report viability for CCOC(=O)C(C(=O)OCC)=C1OC(=O)c2ccccc21 please.
Data returned: 96.4

Data request: Can you look up the measured viability of CCc1cccc(NC(=O)CS(=O)Cc2nc(-c3ccc(C)cc3)oc2C)c1 (stereo unspecified) for me?
Data returned: 87.1

Data request: Quick check: viability of COC(=O)c1cc(-c2ccc3c(c2)OCO3)nc2ccccc12 ?
Data returned: 76.3

Data request: Give its viability value. Item: COc1ccc(CCNC(=O)c2c(O)c3c([nH]c2=O)CCCC3)cc1
Data returned: 90

Data request: Look up viability for this molecule: Cc1c(C(=O)Nc2ccncc2)sc2nc(-c3ccccc3)cn12
Data returned: 89.2

Data request: If you can, please state the reported viability value of Cc1cc(C)nc(SCCCn2c(=O)[nH]c3ccccc32)n1 .
Data returned: 90.5

Data request: Need viability, item Nc1c(C(=O)CCC(=O)O)oc2ccc(Cl)cc12
Data returned: 99.4

Data request: Value lookup for viability; key = COC(=O)c1ccsc1NC(=O)C1=COCCO1
Data returned: 102

Data request: So what does the record say about viability for COc1ccc(S(=O)(=O)N2CC(C)N(S(=O)(=O)c3ccc(OC)cc3)CC2C)cc1 (stereo unspecified) ?
Data returned: 102

Data request: For COc1ccc(C2N3CC4(C)CN2CC(C)(C3)C4O)cc1 (stereo unspecified) , what is its reported viability?
Data returned: 97.2

Data request: For the molecule shown here, O=C(Nc1nccs1)c1ccc(Cl)s1 , give the reported viability.
Data returned: 94.9

Data request: Look up viability: COc1ccc(C)cc1NC(=O)CN(c1ccccc1F)S(C)(=O)=O
Data returned: 103

Data request: Request the reported viability associated with CCOC(=O)CNc1c(N2CCN(c3ccccn3)CC2)c(=O)c1=O
Data returned: 102

Data request: Query (molecule): O=C(Nc1ccncc1)c1cccs1 ; field requested: viability
Data returned: 95.2

Data request: Which viability value belongs to Brc1ccc(-c2nc(-c3ccccn3)no2)o1 ?
Data returned: 67.5

Data request: Would you mind telling me what viability value was observed for COc1ccc(NC2=C(C)C(=O)CC2)cc1 ?
Data returned: 69.5

Data request: // returns reported viability for input Cc1ccccc1-c1nc(CN2CCC(C(=O)O)CC2)c(C)o1
Data returned: 93.9

Data request: Returns the measured viability for the input molecule. Input: COc1ccc(-n2c(SCC(=O)Nc3ccccc3)nc3c(c2=O)SCC3)cc1
Data returned: 96

Data request: Any idea what its viability is? The molecule is CC1CCc2nn(CC(=O)NCCCN3CCCC3=O)cc2C1 (stereo unspecified)
Data returned: 93.7

Data request: Quick one: viability of CC12CN3CC(C)(CN(C1)C3c1ccc3ccccc3c1O)C2=O (stereo unspecified) ?
Data returned: 100

Data request: If you can, please state the reported viability value of O=C(C1CCN(S(=O)(=O)c2ccc(F)cc2)CC1)N1CCOCC1 .
Data returned: 103

Data request: Request the reported viability associated with CCOC(=O)c1ccc(N2C(=O)C3ON(c4ccccc4)C(c4ccco4)C3C2=O)cc1 (stereo unspecified)
Data returned: 93.4

Data request: For the molecule Cc1c(NC(=O)C2CCN(S(=O)(=O)c3ccccc3)CC2)c(=O)n(-c2ccccc2)n1C , what viability is on record?
Data returned: 88.8

Data request: Reported viability for CC1(C)CC(n2c(NCCO)nc3c(c2=O)C2(CCCC2)Cc2ccccc2-3)CCO1 (stereo unspecified) : what is it?
Data returned: 93.4

Data request: Any idea what its viability is? The molecule is COc1c(Cl)ccc(Cl)c1C(=O)OCC(=O)O
Data returned: 86.9

Data request: Which viability reading was recorded for the molecule CSC1=NCCN1C(=O)c1ccco1 ?
Data returned: 98.3

Data request: Given the entry O=C(Nc1cccc(C(F)(F)F)c1)c1cnc2n(c1=O)CCS2 , report its measured viability.
Data returned: 95.2

Data request: Reported viability, molecule COc1cccc(C2NC(=O)NC(C)=C2C(=O)Nc2ccc(C)cc2)c1OC (stereo unspecified) : ____
Data returned: 99.7

Data request: // query viability value for entry COc1ccccc1N1CCN(C(CNS(=O)(=O)c2cccs2)c2cccnc2)CC1 (stereo unspecified)
Data returned: 79.1

Data request: I have this molecule here, Cc1ccc(-n2ncc3c(=O)[nH]c(SCC(=O)N4CCCC4)nc32)cc1C , and I need its recorded viability.
Data returned: 91.8
